Overview of reported Y79 cAMP EC50 across a group of binders:
Biological target: T1, human corticotropin-releasing hormone receptor 1 (CRHR1) (human, UniProt P34998 24-415)
T1 sequence (looked up): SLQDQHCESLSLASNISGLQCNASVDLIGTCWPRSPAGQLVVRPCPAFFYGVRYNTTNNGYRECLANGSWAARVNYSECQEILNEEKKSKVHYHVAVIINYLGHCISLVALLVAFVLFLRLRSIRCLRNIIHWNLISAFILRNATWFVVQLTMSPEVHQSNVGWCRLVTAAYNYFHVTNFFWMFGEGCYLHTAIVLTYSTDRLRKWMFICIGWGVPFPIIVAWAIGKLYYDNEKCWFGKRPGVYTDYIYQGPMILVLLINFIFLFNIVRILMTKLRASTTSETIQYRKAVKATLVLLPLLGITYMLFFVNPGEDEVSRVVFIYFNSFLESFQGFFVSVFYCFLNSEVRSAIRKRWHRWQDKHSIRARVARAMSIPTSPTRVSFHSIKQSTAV
Experiment: cell-based or functional assay
Where no end group is shown, it is not given here. [ ]: non-standard residue; d: D form. NMeI = CC[C@H](C)[C@H](NC)C(=O)O; αMeL = CC(C)C[C@](C)(N)C(=O)O
Express the result in µM but write the number alone.

Input: Which Y79 cAMP EC50 is listed for [NMeI]VLSLDVPIGLLQILLEQEKQEKEKQQAKTNAQILAQV-NH2 (not fully specified (residue 29)) [Reference compound SEQ ID NO:54] ?
Output: 6

API: the following record is the query input.
Input: Could you share which Y79 cAMP EC50 value was measured for Ac-IVTS[αMeL]D[dV]PTG[αMeL]LQIKLEQERAEKARQQAKENTEILAQV-NH2 (not fully specified (residue 29)) [polypeptide comprising SEQ ID NO:29] ?
Output: 1
